- assay target: T1, recombinant human CD4 (catalogue number: 514-CD/CF, manufactured by R&D Systems) (human, UniProt P01730 26-390)
- T1 construct: Bought protein (R&D Systems); also called recombinant CD4
- assay details: SPR, Biacore T100; antibody captured on anti-mouse IgG chip, recombinant human CD4 flowed; 1:1 binding model
measured property: Kd (nM)
One number for each entry, in nM.

// each binder listed below needs its Kd
1. anti-CD4 rat monoclonal antibody KM4068 (antibody, V domains shown, Rat hybridoma IgG with a kappa light chain) VH: QVQLKESGPGLVQPSQTLSLTCTVSGLSLTSNSVSWIRQPPGKGLEWMGIIWSNGDTDYNSAIKSRLSISRDTSKSQVFLKMNSLQTEDTAMYFCANPYYGYNFPFDYWGQGVMVTVSS VL: DIQMTQSPASLSASLEEIVTITCKASQGIDNYLSWYQQKPGKSPQLLIYDATSLADGVPSRFSGSRSGTQYSLKISRPQVDDSGIYYCLQSYSTPFTFGSGTKLEIK
2. anti-CD4 rat monoclonal antibody KM4065 (antibody, V domains shown, Rat hybridoma IgG with a kappa light chain) VH: EVQLVESGGGLVQPGRSMKLSCAASGFTFSNYGMAWVRQAPTKGLEWVATISYDGSITYYRDSVKGRFTISRDHAKSTLYLQMNSLRSEDTATYYCTREEQYSSWYFDFWGPGIMVTVSS VL: DIVLTQSPALAVSLGQRATISCRASQSVSISSHDLMQWYQQKPGQQPKLLIYDAFNLASGIPVRFSGSGSGTDFTLTIDPVQADDIATYYCQQSKDDPYTFGAGTKLELK
3. anti-CD4 rat monoclonal antibody KM4066 (antibody, V domains shown, Rat hybridoma IgG with a kappa light chain) VH: EVQLEESGGGLVQPGRSLKLSCLASGFTFSNYGMNWIRQAPGKGLEWVASISGSSTYIYYADTVKGRFTISRENAENTLYLQMTSLRSEDTALYYCAREGSSTDRYYEVSFAYWGQGTLVTVSS VL: DVVLTQTPVSLSVTLGDQASISCRSSQSLEYSDGYTYLEWYLQKPGQSPQVLIYGVSNRFSGVPDRFIGSGSGTDFTLKISRVEPEDLGVYYCFQATHDPYTFGAGTRLELK
4. anti-CD4 rat monoclonal antibody KM4069 (antibody, V domains shown, Rat hybridoma IgG with a kappa light chain) VH: QVQLKESGPGLVQPSQTLSLTCTVSGSSLTSNSVSWIRQPPGKGLEWMGVIWSNGDADYNSAIKSRLSISRDTSKSQVFLKMNSLQTEDTAMYFCASPYYGYYFPFDYWGQGVMVTVSS VL: DIQMTQSPASLSASLEEIVTITCKASQAIDAYLSWYQQKPGKSPQLLIYDATSLADGVPSRFSGSRSGTQYSLKISRPQVDDSGIYYCLQSYSTPFTFGSGTKLEIK
5. anti-CD4 rat monoclonal antibody KM4067 (antibody, V domains shown, Rat hybridoma IgG with a kappa light chain) VH: QVKLLQSGAALVKPGASVKMSCKASGYTFTDYWVHWVKQSHGKSLEWIGEIYPNNNTTNFNEKFKGKATLTVDKFTSTAYMELSRLTSEDSAIYYCTRGTVYYGLGYFDHWGQGVMVTVSS VL: DIRMTQSPASLSASLGETVNIECLASEDVYSDLAWYQQKPGKSPQLLIYNANNLQSGVPSRFSGSGSGTRYSLKINSLQSEDVATYFCQQYNNYPPYTFGAGTKLELK

*A*
1: 1.1; 2: 0.00426; 3: 0.0882; 4: 0.482; 5: 0.541
